- Tested on: stimulated PBMC
- assay procedure: IC50 on stimulated PBMC (actively dividing cells)
- run parameters: average across the 7 cancer cell lines; Table VII
experimental readout: Therapeutic Index = IC50 stimulated PBMC/IC50 cancer cell, AVERAGE
Give a plain numeric answer without units written out.

Sample answers from the record:
# compound, observed
rows = [
    ("CCC(=O)O[C@]1(C(=O)CO)CC[C@H]2[C@@H]3CCC4=CC(=O)CC[C@]4(C)[C@H]3CC[C@@]21C", 0),
    ("CCCC(=O)OC1(C(=O)CO)CCC2C3CCC4=CC(=O)CC[C@]4(C)C3=CC[C@@]21C (single isomer, unassigned)", 4),
    ("CCCCC(=O)O[C@]1(C(=O)COC(=O)CC)CC[C@H]2[C@@H]3CCC4=CC(=O)CC[C@]4(C)[C@H]3CC[C@@]21C [CB-03-10, cortexolone 17α-valerate-21-propionate]", 4),
    ("CCCC(=O)OCC(=O)[C@@]1(OC(=O)CCC)CCC2C3CCC4=CC(=O)CC[C@]4(C)C3CC[C@@]21C (stereo partly shown)", 4),
    ("C[C@]12CCC(=O)C=C1CC[C@@H]1[C@@H]2CC[C@@]2(C)[C@H]1CC[C@]2(OC(=O)c1ccccc1)C(=O)CO [CB-03-06, cortexolone 17α-benzoate]", 5),
    ("CCCCC(=O)O[C@]1(C(=O)CO)CC[C@H]2[C@@H]3CCC4=CC(=O)CC[C@]4(C)[C@H]3CC[C@@]21C [CB-03-05, cortexolone 17α-valerate]", 3),
]

Next:
query: // Input: CC(=O)O[C@]1(C(C)=O)CC[C@H]2[C@@H]3C=C(Cl)C4=CC(=O)[C@@H]5C[C@@H]5[C@]4(C)[C@H]3CC[C@@]21C [Cyproterone Acetate, Cyproterone acetate, reference compound] . Output its Therapeutic Index = IC50 stimulated PBMC/IC50 cancer cell, AVERAGE only.
result: 1

---

- Tested on: stimulated PBMC
- assay procedure: IC50 on stimulated PBMC (actively dividing cells)
- run parameters: read-out: IC50 on Stimulated PBMC; Example 7 Experiment 1
experimental readout: IC50 (µM)
Please reply with the bare figure in µM and do not write the unit itself.

query: Retrieve IC50 on stimulated PBMC; query C[C@]12CCC(=O)C=C1CC[C@@H]1[C@@H]2CC[C@@]2(C)[C@H]1CC[C@]2(OC(=O)c1ccccc1)C(=O)CO [CB-03-06, cortexolone 17α-benzoate]
result: 113

---

Reported Therapeutic Index = IC50 resting PBMC/IC50 cancer cell is given for each of the following compounds.
- System: stimulated PBMC
- assay procedure: IC50 on stimulated PBMC (actively dividing cells)
- run parameters: PBMC Stim, healthy lymphocyte; Table IV
Give a plain numeric answer without units written out.

Sample answers from the record:
# compound, observed
data = [
    ("C[C@]12CCC(=O)C=C1CC[C@@H]1[C@@H]2CC[C@@]2(C)[C@H]1CC[C@]2(OC(=O)c1ccccc1)C(=O)CO [CB-03-06, cortexolone 17α-benzoate]", 1),
    ("CCCC(=O)OC1(C(=O)CO)CCC2C3CCC4=CC(=O)CC[C@]4(C)C3=CC[C@@]21C (single isomer, unassigned)", 1),
    ("CC(=O)O[C@]1(C(C)=O)CC[C@H]2[C@@H]3C=C(Cl)C4=CC(=O)[C@@H]5C[C@@H]5[C@]4(C)[C@H]3CC[C@@]21C [Cyproterone Acetate, Cyproterone acetate, reference compound]", 1),
    ("CCCCC(=O)O[C@]1(C(=O)CO)CC[C@H]2[C@@H]3CCC4=CC(=O)CC[C@]4(C)[C@H]3CC[C@@]21C [CB-03-05, cortexolone 17α-valerate]", 1),
    ("CCCCC(=O)O[C@]1(C(=O)COC(=O)CC)CC[C@H]2[C@@H]3CCC4=CC(=O)CC[C@]4(C)[C@H]3CC[C@@]21C [CB-03-10, cortexolone 17α-valerate-21-propionate]", 1),
    ("CCC(=O)O[C@]1(C(=O)CO)CC[C@H]2[C@@H]3CCC4=CC(=O)CC[C@]4(C)[C@H]3CC[C@@]21C", 1),
]

Next:
query: // Input: CCCC(=O)OCC(=O)[C@@]1(OC(=O)CCC)CCC2C3CCC4=CC(=O)CC[C@]4(C)C3CC[C@@]21C (stereo partly shown) . Output its Therapeutic Index = IC50 resting PBMC/IC50 cancer cell only.
result: 1

All figures here come from patent US11712443B2.
